Data origin: patent US20210388081A1

# TARGET_OR_SYSTEM: T1, FcRL4, overexpressed on 3T3 cells (UniProt Q96PJ5 20-515, limits assumed)
# T1 construct: whole, on cells
# T1 sequence (looked up): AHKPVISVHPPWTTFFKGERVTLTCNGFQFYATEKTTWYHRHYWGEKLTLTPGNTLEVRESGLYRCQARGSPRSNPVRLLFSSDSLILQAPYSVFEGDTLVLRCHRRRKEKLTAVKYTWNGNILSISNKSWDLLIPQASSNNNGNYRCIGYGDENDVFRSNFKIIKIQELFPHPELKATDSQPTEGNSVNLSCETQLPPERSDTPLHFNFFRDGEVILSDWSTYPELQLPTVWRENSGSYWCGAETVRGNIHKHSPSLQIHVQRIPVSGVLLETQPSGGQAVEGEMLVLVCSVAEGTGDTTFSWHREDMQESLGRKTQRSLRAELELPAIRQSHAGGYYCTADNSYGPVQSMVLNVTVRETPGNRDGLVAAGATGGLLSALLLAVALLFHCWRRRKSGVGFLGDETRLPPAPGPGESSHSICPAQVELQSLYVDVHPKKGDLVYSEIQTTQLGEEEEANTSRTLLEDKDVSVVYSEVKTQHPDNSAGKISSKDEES
# PROTOCOL_SUMMARY: phage clone on 3T3-FcRL4 cells
READOUT_KIND: binding result

- BINDER: "ET200-026 (scFv, screened as phage clone; entry is VL-linker-VH-His tag-HA tag) scFv: NFMLTQPHSVSESPGKTVTISCTGSSGSIASNYVQWYQQRPGSAPTTVIYEDNQRPSGVPDRFSGSIDSSSNSASLTISGLKTEDEADYYCQSYDSSNWVFGGGTKLTVLGSRGGGGSGGGGSGGGGSLEMAEVQLVQSGAEVKKPGSSVKVSCKASGGTFSSYAISWVRQAPGQGLEWMGGIIPIFGTANYAQKFQGRVTITADESTSTAYMELSSLRSEDTAVYYCARNNHYYNDYWGQGTLVTVSSTSGQAGQHHHHHHGAYPYDVPDYAS"
  READOUT_KIND: "binding result"
  RESULT: "no binding"
- BINDER: "ET200-107 (scFv, screened as phage clone; entry is VL-linker-VH-His tag-HA tag) scFv: QSVVTQPPSVSAAPGEKVTISCSGSNFNVGNNDVSWYQQLPGAAPKLLIYDNNKRPSGIPDRFSGSKSGTSATLDITGLHSDDEADYYCGTWDSSLNTGGVFGTGTKVTVLGSRGGGGSGGGGSGGGGSLEMAEVQLVQSGAEVKKPGASVKVSCKASGYTFTSYTISWVRQAPGQGLEWMGWISTYNGLTNYAQNLQGRVTMTTDTFTTTAYMELRSLRSDDTAVYYCVREGSPDYGDFASFDYWGQGTLVTVSSTSGQAGQHHHHHHGAYPYDVPDYAS"
  READOUT_KIND: "binding result"
  RESULT: "no binding"
